Test system: L1210 leukemia ip in BDF1 mice, survival T/C
Experiment: NCI In Vivo Anticancer Drug Screen. Data for tumor model L1210 Leukemia (intraperitoneal) in B6D2F1 (BDF1) mice
Settings: endpoint: mean survival time; dose: 400.0 mg/kg/injection; schedule: Q04DX002 (ip); vehicle: Klucel (hydroxypropylcellulose) (HPC); higher = longer survival
Toxic doses and inconclusive results are not listed.
List of T/C values.

# compound, T/C
data = [
    ("COc1cccc(-c2cc3c(OC)ccc(OC)c3[nH]2)c1", "99 % of control"),
    ("C/C(CC(C)C)=N\\NC(=O)Nc1cccc(Cl)c1C", "95 % of control"),
    ("Cc1ccc(C)c(S(N)(=O)=O)c1", "103 % of control"),
    ("NC(=O)C(NC(=O)c1ccc([N+](=O)[O-])cc1)Sc1ccccc1 (stereo not given)", "101 % of control"),
    ("c1ccc(-c2cc3c(nn2)[nH]c2ccccc23)cc1", "87 % of control"),
    ("CCc1cc2oc(C)c(C)c2c(N=Nc2cccc([N+](=O)[O-])c2)c1O", "93 % of control"),
    ("O=C(O)c1cc(Cl)cc(F)c1Cl", "105 % of control"),
    ("O=C(c1ccccc1)C(c1ccccc1)(c1ccccc1)c1ccccc1", "97 % of control"),
    ("N#CC(c1ccccc1)C(C/C(=N\\O)c1ccccc1)c1ccccc1 (stereo not given)", "96 % of control"),
    ("[O-][N+](=Nc1ccc(Br)cc1)c1ccc(Br)cc1", "89 % of control"),
    ("Cc1cccc(C2=N/C(=C\\c3cccc([N+](=O)[O-])c3)C(=O)O2)c1", "100 % of control"),
    ("CCOC(=O)Cn1c(C)cnc1C", "111 % of control"),
    ("COCn1c2ccccc2c2nc(-c3ccncc3)nc(-c3ccncc3)c21", "95 % of control"),
    ("Cc1nonc1C(N)=O", "95 % of control"),
    ("CCCCCCCCCCCCCCCCCCNC(=O)Nc1ccc(SC)cc1", "101 % of control"),
    ("O=C(Nc1ccccn1)Nc1ccc([N+](=O)[O-])cc1[N+](=O)[O-]", "97 % of control"),
    ("CN(C)C(=S)SCSC(=S)N(C)C", "93 % of control"),
    ("Nc1ccc(C(=O)N/N=C/C=C/c2ccccc2)cc1", "99 % of control"),
    ("CC(CCOC(=O)c1ccccc1)=C(c1ccccc1)c1ccccc1", "95 % of control"),
    ("Cc1ccc(S(=O)(=O)N(CCCc2c(C)nc(N)[nH]c2=O)Cc2ccc(N)cc2)cc1", "112 % of control"),
    ("CNC(=S)N/N=C(\\C=N\\NC(=S)NC)c1ccc(-c2ccccc2)cc1", "92 % of control"),
    ("CCc1cc2oc(C)c(C)c2c(N=Nc2ccccc2[N+](=O)[O-])c1O", "93 % of control"),
    ("Cc1ccc(C(=O)OCc2ccccc2CN2CCCCC2C)cc1 (stereo not given)", "90 % of control"),
    ("CC1(C)C2CCC1(C)C(OCC(=O)O)C2 (stereo not given)", "102 % of control"),
    ("O=C(NCCc1ccccc1)c1ccc(Cl)cc1", "89 % of control"),
]
